- target.or.system: T1, human ChemerinR (human, UniProt Q99788 3-373)
- T1 sequence: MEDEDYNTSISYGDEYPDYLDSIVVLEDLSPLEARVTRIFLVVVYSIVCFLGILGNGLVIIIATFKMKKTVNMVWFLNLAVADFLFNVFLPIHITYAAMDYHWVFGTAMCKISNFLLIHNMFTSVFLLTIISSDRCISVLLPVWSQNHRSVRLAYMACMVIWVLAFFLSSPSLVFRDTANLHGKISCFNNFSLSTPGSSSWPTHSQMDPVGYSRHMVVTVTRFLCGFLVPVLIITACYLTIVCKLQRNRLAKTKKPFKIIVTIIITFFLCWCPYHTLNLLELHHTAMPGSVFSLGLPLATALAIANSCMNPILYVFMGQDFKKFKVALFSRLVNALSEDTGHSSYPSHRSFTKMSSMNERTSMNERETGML
- assay.notes: cell-based or functional assay
experimental.endpoint: Mean EC50, intracellular calcium release (aequorin assay) (µM)

See these solved cases before continuing.
Qu. Could you tell me which Mean EC50, intracellular calcium release (aequorin assay) is on file for FPGQFAFS [Human Chemerin-8] ?
Ans. 2

Qu. Queued: QRAGEDPHSFYFPGQFAFS [Human Chemerin-19]
Ans. 0.0167

(1) YFPGQFAAS [Human [Ala-8]Chemerin-9]
(2) HSFYFPGQFAFS [Human Chemerin-12]
Qu. Consider entries 1 and 2 . Which has the numerically lower Mean EC50, intracellular calcium release (aequorin assay)? Write down the label of the entry you select.
Ans. 2
(2: 0.0122 µM, 1: 38 µM)
